# Tested on: wheat variety 'OSLO'
# Protocol text: Chemical hybridizing agent assay for male sterility (male gametocidal activity), foliar spray, seed counts
# Type: in vivo
# Measurement context: Table 2; rate 250 μg/plant, foliar, Feekes 8
Binary classification by Sterility (%), with 30% as an inclusive lower bound for TRUE; all other cases are FALSE.

[[record]]
compound = "COP(=O)(OC)c1cnn(-c2ccc(Cl)cc2)c1O"
assigned_class = "TRUE"

[[record]]
compound = "COP(=O)(OC)c1c(-c2ccccc2)nn(-c2cc(C)cc(C)c2)c1O [Compound 10b]"
assigned_class = "FALSE"

[[record]]
compound = "COP(=O)(OC)c1cnn(C2CCCCC2)c1O"
assigned_class = "FALSE"

[[record]]
compound = "COP(=O)(OC)c1cnn(-c2ccc(Br)cc2)c1O"
assigned_class = "FALSE"

[[record]]
compound = "COP(=O)(OC)c1cnn(-c2ccccc2Cl)c1O"
assigned_class = "FALSE"

[[record]]
compound = "O=P(O)(O)C1=CNN(c2ccc(Cl)cc2)C1O (stereo not drawn)"
assigned_class = "FALSE"

[[record]]
compound = "Cc1cc(C)cc(-n2ncc(P(=O)([O-])O)c2O)c1.[K+]"
assigned_class = "FALSE"

[[record]]
compound = "COP(=O)([O-])c1cnn(-c2cc(C)cc(C)c2)c1O.[K+]"
assigned_class = "FALSE"

[[record]]
compound = "COP(=O)(OC)c1cnn(-c2ccc(Cl)cc2)c1OCc1ccccc1[N+](=O)[O-]"
assigned_class = "TRUE"

[[record]]
compound = "COP(=O)(OC)c1c(-c2ccccc2)nn(-c2ccc(Cl)cc2)c1O [Compound 10a]"
assigned_class = "FALSE"

[[record]]
compound = "COP(=O)(OC)c1cnn(-c2ccc(Cl)cc2)c1OCc1ccc(Cl)cc1"
assigned_class = "TRUE"

[[record]]
compound = "COP(=O)(OC)c1cnn(-c2ccc(F)cc2)c1O"
assigned_class = "TRUE"

